# Test system: CDK2
# Design: species or system human, MV4-11 + K-562 + COLO205 + SK-N-BE2 + OVCAR-8
# condition: read-out: apparent Kd; compound concentrations:100 nM and 1000 nM (sheet 'Samples'); n = 1
recorded metric: potency estimated from few doses (nM)
Express the result in nM but write the number alone.

# get_value(readout='potency estimated from few doses', item= CC(C)(CO)CNC(=O)c1ccc2c(c1)/C(=N/Nc1ccc(S(N)(=O)=O)cc1)C(=O)N2 [GW301784X] )
87.1

Entry COc1cccc(F)c1C(=O)c1cnc(NC2CCN(S(C)(=O)=O)CC2)nc1N please
37.7

Entry CC(C)COC(=O)c1ccc2c(c1)/C(=C/Nc1ccc(S(N)(=O)=O)cc1)C(=O)N2 [GW416981X] please
587

Entry O=C(Nc1n[nH]c2nc(-c3nccs3)c(Br)cc12)C1CC1 please
1640

Entry NS(=O)(=O)c1ccc(N/N=C2\C(=O)Nc3ccc(C(=O)NCc4ccncc4)cc32)cc1 [GSK300657X] please
567

====

# Tested on: MAP2K5
# Parameters: species or system human, MV4-11 + K-562 + COLO205 + SK-N-BE2 + OVCAR-8
# condition: read-out: apparent Kd; compound concentrations:100 nM and 1000 nM (sheet 'Samples'); n = 1
Use Yes when the recorded potency estimated from few doses is no lower than 1000 nM; use No when it is lower.

Decide: potency estimated from few doses of CN(C)c1cc2c(Nc3ccc4c(cnn4Cc4ccccc4)c3)ncnc2cn1 [GW282974X] >= 1000 nM?
Yes

Entry Cc1cccc(Nc2nc(N[C@H]3CCNC3)ncc2C(N)=O)c1.Cl [GSK2197149A] please
Yes

Entry O=C(O)C(F)(F)F.O=C(O[C@H]1CN[C@H](C#Cc2cc3ncnc(Nc4ccc(Cc5ccccc5)cc4)c3s2)C1)N1CCOCC1 [GSK238583A] please
No

Entry Cl.O=C(O[C@H]1CN[C@H](C#Cc2cc3ncnc(Nc4ccc5c(cnn5Cc5ccccc5)c4)c3s2)C1)N1CCOCC1 please
Yes

Entry CNC(=O)Oc1cc(C)c(/C=C/c2cncc(C(=O)NC)c2)c(C)c1 [GW432441X] please
No

Entry O=C(O)C(F)(F)F.O=c1[nH]ccc2nc(N[C@@H]3CCNC3)nc(Nc3cc(Cl)cc(Cl)c3)c12 [GSK2188764A] please
No

Entry COc1cc2ncn(-c3cc(OCc4cccs4)c(C(N)=O)s3)c2cc1OC [GSK312948A] please
No

====

# Tested on: CK2alpha2
# condition: Highest Assay Concentration (M): 9.9999999999999995E-7
Would you kindly list IC50 for each of these compounds?
The number alone won't do; follow it with the unit.

# get_value(readout='IC50', item= O=C1N=C(Nc2ccccc2)S/C1=C\c1ccc2ncccc2c1 [RO4493940-000] )
5.11e-08 M

Entry O=C1NC(=O)/C(=C/c2ccc3ncccc3c2)S1 [RO4603632-000] please
3.72e-07 M

====

# System: PKN3;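 further: NanoBRET target engagement in HEK293T cells transiently expressing full-length PKN3 with C-terminal NanoLuc, displacement of fluorescent tracer K5 (500 nM), BRET read after 2 h equilibration at 37 °C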
# condition: read-out: Rep 2; hek293t cells
Would you kindly list IC50 for each of these compounds?
Express the result in nM but write the number alone.

# get_value(readout='IC50', item= Fc1ccc(-c2c(-c3ccncc3)[nH]c3cccnc23)cc1 )
951

Entry Cc1cccc2c(-c3ccncn3)c(-c3ccc(F)cc3)nn12 [GW515532X] please
922

Entry Cc1cccc(-c2nc(Nc3ccncc3)c3sccc3n2)n1 [GW869641X] please
472

Entry CCn1c(-c2nonc2N)nc2c(C#CCN)ncc(OCCCN)c21.O=C(O)C(F)(F)F [GSK561866B] please
11200

====

# Tested on: CSNK1E
# Parameters: species or system human, MV4-11 + K-562 + COLO205 + SK-N-BE2 + OVCAR-8
# condition: read-out: apparent Kd; compound concentrations:100 nM and 1000 nM (sheet 'Samples'); n = 1
Would you kindly list potency estimated from few doses for each of these compounds?
Express the result in nM but write the number alone.

# get_value(readout='potency estimated from few doses', item= Fc1ccc(-c2ncn(C3CCNCC3)c2-c2ccnc(Oc3ccc(F)c(F)c3)n2)cc1 [SB-253228] )
1260

Entry Fc1ccc(-c2ncn(C3CCNCC3)c2-c2ccnc(Oc3ccc(Oc4ccccc4)cc3)n2)cc1 [SB-245392] please
1200

Entry Cc1n[nH]c2ccc(-c3cc(OC[C@@H](N)Cc4ccccc4)cnc3-c3ccoc3)cc12.Cc1n[nH]c2ccc(-c3cc(OC[C@@H](N)Cc4ccccc4)cnc3-c3ccoc3)cc12.O=C(O)C(F)(F)F.O=C(O)C(F)(F)F [GSK507358A] please
1160

Entry Fc1ccc(-c2nc[nH]c2-c2ccncc2)cc1 [SB-217360] please
623

Entry Fc1ccc(-c2c(-c3ccncc3)[nH]c3nccnc23)cc1 [RO1155697-000] please
52.8

====

# Test system: CDK10
# Design: species or system human, MV4-11 + K-562 + COLO205 + SK-N-BE2 + OVCAR-8
# condition: read-out: apparent Kd; compound concentrations:100 nM and 1000 nM (sheet 'Samples'); n = 1
recorded metric: potency estimated from few doses (nM)
Express the result in nM but write the number alone.

Entry FC(F)(F)c1cc(Nc2nccc(-c3c(-c4ccc(Cl)cc4)nn4ncccc34)n2)ccc1Cl [GW829351X] , system CDK10: what potency estimated from few doses was measured?
1110

Entry CN(C)CC(O)COc1ccc(Nc2nccc(-c3cnn4nc(N5CCOCC5)ccc34)n2)cc1 (stereo not drawn) [GW767488X] please
1360

Entry CN1C[C@@H]2Cn3c(c(C4=C(c5cn(C)c6ccccc56)C(=O)NC4=O)c4ccccc43)C[C@H]2C1.Cl please
1200

Entry CC(=O)Nc1cccc(C#Cc2cncnc2Nc2ccc(OCc3cccc(F)c3)c(Cl)c2)c1 [GW703087X] please
1540

Entry N#Cc1cccc(Nc2nccc(-c3cnn4ncccc34)n2)c1 [GW778894X] please
405

Entry Cc1cc(NC(=O)c2cccc(NC(=O)/C=C/CN(C)C)c2)ccc1Nc1nccc(-c2cccnc2)n1 please
844

====

# Tested on: DDR1
# Design: species or system human, MV4-11 + K-562 + COLO205 + SK-N-BE2 + OVCAR-8
# condition: read-out: apparent Kd; compound concentrations:100 nM and 1000 nM (sheet 'Samples'); n = 1
Would you kindly list potency estimated from few doses for each of these molecules?
Express the result in nM but write the number alone.

# get_value(readout='potency estimated from few doses', item= CCn1cc(-c2ccnc3[nH]c(-c4cccc(CN(C)C)c4)cc23)c(-c2ccc(NC(=O)N(C)C)cc2)n1 )
869

Entry Fc1ccc(-c2c(-c3ccncc3)[nH]c3nccnc23)cc1 please
1010

Entry O=c1c(Oc2ccc(F)cc2F)cc2cnc(NC3CCOCC3)nc2n1CCCO please
1080

Entry COC(=O)Nc1nc2ccc(Oc3ccc(NC(=O)Nc4cc(C(F)(F)F)ccc4F)cc3)cc2n1C.Cl [GW692089A] please
1030

Entry Nc1ncnc2occ(-c3ccc(NC(=O)Nc4cc(C(F)(F)F)ccc4F)cc3)c12 please
122

Entry Cc1ccc(-n2nc(C(C)(C)C)cc2NC(=O)Nc2ccc(OCCN3CCOCC3)cc2)cc1 [BIRB0876BS] please
607

Entry CN1CCN(C(=O)c2ccc(NC(=O)Nc3ccc(N(C)c4ccnc(Nc5ccc(CS(C)(=O)=O)cc5)n4)cc3)cc2)CC1.Cl [GW830263A] please
816

====

# Test system: PRKACA
# Parameters: species or system human, MV4-11 + K-562 + COLO205 + SK-N-BE2 + OVCAR-8
# condition: read-out: apparent Kd; compound concentrations:100 nM and 1000 nM (sheet 'Samples'); n = 1
Use Condition met when the recorded potency estimated from few doses is no lower than 1000 nM; use Condition not met when it is lower.

Decide: potency estimated from few doses of CC(C)NCC(Cc1ccccc1)NC(=O)c1cc(Br)c(-c2ccnc3[nH]ccc23)s1.CC(C)NCC(Cc1ccccc1)NC(=O)c1cc(Br)c(-c2ccnc3[nH]ccc23)s1.Cl.Cl (stereo not shown) [GSK1383281A] >= 1000 nM?
Condition not met

Entry Cl.Cl.NC[C@H](Cc1ccc(C(F)(F)F)cc1)NC(=O)c1cc(Br)c(-c2ccnc3[nH]ccc23)s1.NC[C@H](Cc1ccc(C(F)(F)F)cc1)NC(=O)c1cc(Br)c(-c2ccnc3[nH]ccc23)s1 [GSK1487252A] please
Condition not met

Entry Cc1cnc(Nc2ccc(F)cc2Cl)nc1-c1c[nH]c(C(=O)N[C@H](CO)c2cccc(Cl)c2)c1 [Vertex11e] please
Condition met

Entry CCn1c(-c2nonc2N)nc2cncc(C(=O)N3CC[C@H](N)C3)c21.Cl please
Condition not met

Entry Cc1occc1-c1nc(N)c(OC[C@@H](N)Cc2c[nH]c3ccccc23)cc1-c1cc2c(C)n[nH]c2cn1 [GSK1660450B] please
Condition not met

Entry CCn1c(-c2nonc2N)nc2c(C#CC(C)(C)O)nc(OCCN)cc21.CCn1c(-c2nonc2N)nc2c(C#CC(C)(C)O)nc(OCCN)cc21.Cl.Cl [GSK902056A] please
Condition met

Entry CCn1c(-c2nonc2N)nc2c(C#CC(C)(C)O)ncc(OC[C@@H]3CCCN3)c21.O=C(O)C(F)(F)F [GSK614526A] please
Condition not met

Entry Cl.Cl.NC[C@H](CC1CCCCC1)NC(=O)c1cc(Br)c(-c2ccnc3[nH]ccc23)s1.NC[C@H](CC1CCCCC1)NC(=O)c1cc(Br)c(-c2ccnc3[nH]ccc23)s1 [GSK1581427A] please
Condition not met

Entry CC(C)N1CCC(n2cnc(-c3ccc(F)cc3)c2-c2ccnc(N)n2)CC1 please
Condition met

Entry CS(=O)(=O)CCn1c(=O)c(Oc2ccc(F)cc2F)cc2cnc(NC3CCOCC3)nc21 please
Condition met
